System: Streptococcus pneumoniae
protocol notes: Antibacterial activity against Streptococcus pneumoniae ARC548
Type: functional
experimental parameters: Streptococcus pneumoniae, ARC548; read-out: MIC
# label = Yes if MIC < 1 µg/mL else No

molecule	assigned category
Cc1[nH]c(C(=O)N[C@@H]2CCN(c3ncc(C(=O)O)s3)C[C@H]2F)c(Cl)c1Cl (racemic)	No
Cc1[nH]c(C(=O)NC2CCN(c3nc(C(=O)O)cs3)CC2)c(Cl)c1Cl	Yes
Cc1[nH]c(C(=O)N[C@@H]2CCN(c3ncc(C(=O)O)s3)C[C@@H]2F)c(Cl)c1Cl	Yes
Cc1[nH]c(C(=O)NC2CCN(c3cc(C(N)=O)cc(Cl)n3)CC2)cc1C#N	No
Cc1[nH]c(C(=O)NC2CCN(c3ncc(C(=O)O)s3)CC2)c(Cl)c1Cl	Yes
Cc1[nH]c(C(=O)NC2CCN(c3cc(C(=O)O)cc(Cl)n3)CC2)c(Cl)c1Cl	Yes
Cc1[nH]c(C(=O)NC2CCN(c3cc(C(N)=O)cc(Cl)n3)CC2)cc1Br	No
Cc1ccc(C(=O)NC2CCN(c3cc(C(N)=O)cc(Cl)n3)CC2)[nH]1	No
Cc1[nH]c(C(=O)NC2CCN(c3cc(C(N)=O)cc(Cl)n3)CC2)cc1Cl	No
Cc1[nH]c(C(=O)NC2CCN(c3nnco3)CC2)c(Cl)c1Cl	No
Cc1[nH]c(C(=O)NC2CCN(C3CN[C@H](C(=O)O)C3)CC2)c(Cl)c1Cl (stereo partly drawn)	No

---

assay target: DNA gyrase subunit B (Staphylococcus aureus)
protocol notes: Inhibition of ATPase activity of recombinant Staphylococcus aureus DNA gyrase B hybrid tetramer enzyme reconstituted from Escherichia coli GyrA by ammonium molybdate/malachite green phosphate assay
# label = 1.0 if IC50 < 200 nM else 0.0

compound	assay target	assigned category
Cc1[nH]c(C(=O)NC2CCN(c3nnco3)CC2)c(Cl)c1Cl	DNA gyrase subunit B (Staphylococcus aureus)	0.0
Cc1[nH]c(C(=O)NC2CCN(c3nc(C(=O)O)cs3)CC2)c(Cl)c1Cl	DNA gyrase subunit B (Staphylococcus aureus)	1.0
Cc1[nH]c(C(=O)NC2CCN(C3CN[C@H](C(=O)O)C3)CC2)c(Cl)c1Cl (stereo not given in full)	DNA gyrase subunit B (Staphylococcus aureus)	0.0
Cc1[nH]c(C(=O)NC2CCN(c3cc(C(N)=O)cc(Cl)n3)CC2)cc1C#N	DNA gyrase subunit B (Staphylococcus aureus)	1.0
Cc1[nH]c(C(=O)NC2CCN(c3cc(C(N)=O)cc(Cl)n3)CC2)c(Cl)c1Cl	DNA gyrase subunit B (Staphylococcus aureus)	1.0

---

System: Staphylococcus aureus
protocol notes: Antibacterial activity against Staphylococcus aureus ARC516
Type: functional
experimental parameters: Staphylococcus aureus, ARC516; read-out: MIC

molecule	assay target	unit descriptor	relation	MIC
Cc1ccc(C(=O)NC2CCN(c3cc(C(N)=O)cc(Cl)n3)CC2)[nH]1	Staphylococcus aureus	µg/mL	>	64
Cc1[nH]c(C(=O)NC2CCN(c3ncc(C(=O)O)s3)CC2)c(Cl)c1Cl	Staphylococcus aureus	µg/mL	=	8
Cc1[nH]c(C(=O)NC2CCN(c3cc(C(=O)O)cc(Cl)n3)CC2)c(Cl)c1Cl	Staphylococcus aureus	µg/mL	=	2
CONC(=O)c1cnc(N2CCC(NC(=O)c3[nH]c(C)c(Cl)c3Cl)CC2)s1	Staphylococcus aureus	µg/mL	=	8
Cc1[nH]c(C(=O)NC2CCN(c3cc(C(N)=O)cc(Cl)n3)CC2)c(Cl)c1Cl	Staphylococcus aureus	µg/mL	=	4
Cc1[nH]c(C(=O)NC2CCN(c3nnco3)CC2)c(Cl)c1Cl	Staphylococcus aureus	µg/mL	=	32
Cc1[nH]c(C(=O)N[C@@H]2CCN(c3ncc(C(=O)O)s3)C[C@H]2F)c(Cl)c1Cl (racemic)	Staphylococcus aureus	µg/mL	>	64

---

assay target: DNA gyrase subunit B (Staphylococcus aureus, UniProt P0A0K8)
Sequence (P0A0K8 whole entry): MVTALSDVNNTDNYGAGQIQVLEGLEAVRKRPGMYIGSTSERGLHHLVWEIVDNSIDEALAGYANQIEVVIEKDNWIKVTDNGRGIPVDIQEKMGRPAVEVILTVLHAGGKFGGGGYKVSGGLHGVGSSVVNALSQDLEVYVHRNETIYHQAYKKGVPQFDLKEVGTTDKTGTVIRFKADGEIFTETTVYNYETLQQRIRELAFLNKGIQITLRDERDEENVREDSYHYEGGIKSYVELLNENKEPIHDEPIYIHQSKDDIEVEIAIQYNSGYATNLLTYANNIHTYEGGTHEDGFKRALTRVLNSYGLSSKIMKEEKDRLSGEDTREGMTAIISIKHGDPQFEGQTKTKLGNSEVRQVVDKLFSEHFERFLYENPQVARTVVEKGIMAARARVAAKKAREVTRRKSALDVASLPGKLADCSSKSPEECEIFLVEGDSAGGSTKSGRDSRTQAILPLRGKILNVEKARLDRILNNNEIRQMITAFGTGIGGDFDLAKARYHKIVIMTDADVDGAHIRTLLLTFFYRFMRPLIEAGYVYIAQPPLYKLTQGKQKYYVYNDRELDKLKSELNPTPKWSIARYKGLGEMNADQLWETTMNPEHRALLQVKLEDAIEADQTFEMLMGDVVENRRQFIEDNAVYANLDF
protocol notes: Inhibition of ATPase activity of recombinant Staphylococcus aureus DNA gyrase B hybrid tetramer enzyme reconstituted from Escherichia coli GyrA by ammonium molybdate/malachite green phosphate assay
pIC50: −log10 of the molar value.
Label True for high-side pIC50 (at or above 7) and False for low-side pIC50 (below it).

compound	assigned category
Cc1[nH]c(C(=O)NC2CCN(c3cc(C(=O)O)cc(Cl)n3)CC2)c(Cl)c1Cl	True
Cc1[nH]c(C(=O)N[C@H]2CCN(c3ncc(C(=O)O)s3)C[C@H]2F)c(Cl)c1Cl	True
Cc1[nH]c(C(=O)NC2CCN(c3ncc(C(=O)O)s3)CC2)c(Cl)c1Cl	True
CONC(=O)c1cnc(N2CCC(NC(=O)c3[nH]c(C)c(Cl)c3Cl)CC2)s1	True
Cc1ccc(C(=O)NC2CCN(c3cc(C(N)=O)cc(Cl)n3)CC2)[nH]1	False
Cc1[nH]c(C(=O)N[C@H]2CCN(c3ncc(C(=O)O)s3)C[C@H]2F)c(Cl)c1Cl (racemic)	True

---

Test system: Staphylococcus aureus
protocol notes: Antibacterial activity against Staphylococcus aureus ARC516
Assay type: functional
experimental parameters: Staphylococcus aureus, ARC516; read-out: MIC
This listing pairs compounds with measured MIC.
reported property: MIC

compound	value
Cc1[nH]c(C(=O)NC2CCN(c3cc(C(N)=O)cc(Cl)n3)CC2)cc1Br	32 µg/mL
Cc1[nH]c(C(=O)N[C@@H]2CCN(c3ncc(C(=O)O)s3)C[C@@H]2F)c(Cl)c1Cl	2 µg/mL
Cc1[nH]c(C(=O)NC2CCN(c3cc(C(N)=O)cc(Cl)n3)CC2)cc1Cl	> 32 µg/mL
Cc1[nH]c(C(=O)NC2CCN(c3nc(C(=O)O)cs3)CC2)c(Cl)c1Cl	8 µg/mL
Cc1[nH]c(C(=O)NC2CCN(C3CN[C@H](C(=O)O)C3)CC2)c(Cl)c1Cl (stereo not given in full)	> 64 µg/mL

---

assay target: DNA gyrase subunit B (Staphylococcus aureus, UniProt P0A0K8)
protocol notes: Inhibition of ATPase activity of recombinant Staphylococcus aureus DNA gyrase B hybrid tetramer enzyme reconstituted from Escherichia coli GyrA by ammonium molybdate/malachite green phosphate assay
pIC50: −log10 of the molar value.
This listing pairs compounds with measured pIC50.

compound	pIC50
Cc1[nH]c(C(=O)NC2CCN(c3cc(C(N)=O)cc(Cl)n3)CC2)cc1Cl	6.96
Cc1[nH]c(C(=O)NC2CCN(c3cc(C(N)=O)cc(Cl)n3)CC2)cc1Br	7.00
Cc1[nH]c(C(=O)N[C@@H]2CCN(c3ncc(C(=O)O)s3)C[C@H]2F)c(Cl)c1Cl (racemic)	6.96
